Kindly supply the reported protein stability index values for the records listed here.
B1: ESRRA (parent)
chain: SLPLQDELAFAEDLVLDEEGARAA

variants of: B1; assay: protein stability index of a GFP-peptide fusion (GPS, HEK-293T) (PSI 1-6); higher = more stable; conditions: c terminus: a fixed tail appended;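 note: lentivirally expressed fusions sorted by FACS into six bins by GFP to DsRed ratio, PSI derived from sequencing read proportions per bin multiplied by bin number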
One number for each entry.

Query block: Please give the measured protein stability index for this variant: `P3I`
Result block: 3.93

Value sought for every listed variant: protein stability index.
1. A11Q
2. Q5C
3. R22F
4. G20V
5. A11R
6. A24Q
7. L16N
8. L14S

Result block:
[5.56, 3.7, 3.24, 4, 5.65, 3.05, 4.59, 4.7]
